biological target: purified LasB protein from P. aeruginosa (Pseudomonas aeruginosa, UniProt P14756); construct: purchased Merck or Charles River Laboratories; experiment: Fluorometric assay to determine Ki (Abz-Ala-Gly-Leu-Ala-p-Nitro-Benzyl-Amide substrate); type: biochemical
Sequence (P14756 198-498): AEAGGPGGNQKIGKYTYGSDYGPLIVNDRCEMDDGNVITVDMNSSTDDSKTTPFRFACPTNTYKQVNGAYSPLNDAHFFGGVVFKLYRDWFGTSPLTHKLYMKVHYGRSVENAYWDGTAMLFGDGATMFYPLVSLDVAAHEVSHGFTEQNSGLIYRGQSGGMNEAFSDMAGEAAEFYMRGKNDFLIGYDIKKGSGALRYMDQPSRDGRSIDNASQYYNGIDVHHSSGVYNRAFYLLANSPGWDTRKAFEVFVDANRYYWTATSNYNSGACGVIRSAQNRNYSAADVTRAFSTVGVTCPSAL
pKi: −log10 of the molar value.
Provide the recorded pKi for the entries that follow.

Take a look at these entries with their results.
smiles.string | readout.label | assay.value
COc1cc(OCCC[N+]2(C)CCOCC2)ccc1-c1csc(CNC(=O)C2(CC(=O)[O-])Cc3ccccc3C2)n1 | pKi | 6.70 to 7.30
COc1ccc(-c2csc(CNC(=O)C3(CC(=O)O)Cc4ccccc4C3)n2)cc1S(=O)(=O)N1CCC(N(C)C)CC1 | pKi | 6.70 to 7.30
C[N+]1(CCCOc2ccc(-c3csc(CNC(=O)C4(CC(=O)[O-])Cc5cc(F)c(F)cc5C4)n3)cc2S(C)(=O)=O)CCOCC1 | pKi | 6.70 to 7.30
O=C(O)CC1(C(=O)NCc2nc(-c3ccccc3O)cs2)Cc2ccccc2C1 | pKi | 6.70 to 7.30
COc1ccc(-c2csc(CNC(=O)C3(CC(=O)[O-])Cc4cc(F)c(F)cc4C3)n2)cc1S(=O)(=O)N1CCC([N+](C)(C)C)CC1 | pKi | 6.70 to 7.30
CN1CCN(CCCOc2ccc(-c3csc(CNC(=O)C4(CC(=O)O)Cc5ccccc5C4)n3)cc2)CC1 | pKi | 6.70 to 7.30
COc1cc(OCC(=O)N2CC[N+](C)(C)CC2)ccc1-c1csc(CNC(=O)C2(CC(=O)[O-])Cc3ccccc3C2)n1 | pKi | 6.70 to 7.30
CN(C)C(=O)C1CCN(CCCn2cc(-c3csc(CNC(=O)C4(CC(=O)O)Cc5ccccc5C4)n3)cn2)CC1 | pKi | 5.00 to 6.70

Please supply pKi for each of the following items, keeping them in order.
1. O=C(O)CC1(C(=O)NCc2nc(-c3ccc(OCCN4CCOCC4)cc3)cs2)Cc2ccccc2C1
2. O=C(O)CC1(C(=O)NCc2nc(-c3ccccc3)cs2)Cc2ccccc2C1
3. CN(C)C1CCN(S(=O)(=O)c2cc(-c3csc(CNC(=O)C4(CC(=O)O)Cc5cc(F)c(F)cc5C4)n3)ccc2OCCN2CCOCC2)CC1
4. COc1cc(OCc2ccncc2)ccc1-c1csc(CNC(=O)C2(CC(=O)O)Cc3ccccc3C2)n1

["6.70 to 7.30", "6.70 to 7.30", "6.70 to 7.30", "> 7.30"]

Please supply pKi for each of the following items, keeping them in order.
1. O=C(O)CC1(C(=O)NCc2ncc(-c3ccccc3)s2)Cc2ccccc2C1
2. C[n+]1ccc(Cn2cc(-c3csc(CNC(=O)C4(CC(=O)[O-])Cc5ccccc5C4)n3)cn2)cc1
3. COc1cc(OCCc2n(C)cc[n+]2C)ccc1-c1csc(CNC(=O)C2(CC(=O)[O-])Cc3cc(F)c(F)cc3C2)n1
4. Cn1ccc(-c2csc(CNC(=O)C3(CC(=O)O)Cc4ccccc4C3)n2)n1
5. COc1ccc(-c2csc(CNC(=O)C3(CC(=O)O)Cc4cc(F)c(F)cc4C3)n2)cc1S(=O)(=O)N1CCC(N(C)C)CC1

["5.00 to 6.70", "6.70 to 7.30", "6.70 to 7.30", "5.00 to 6.70", "> 7.30"]
